Entries and their koff
# targetSystem: T1, Human TNFa N-his trimers (His-tagged TNF, produced at ESBATech) (human, UniProt P01375 77-233)
# T1 construct: Captured as trimers on a Ni-NTA sensor chip by the N-terminal His tags in the Biacore assay of the general methods; also called human TNFα; human TNF alpha; not shown: N-terminal His tag
# T1 sequence (P01375 77-233 limits assumed): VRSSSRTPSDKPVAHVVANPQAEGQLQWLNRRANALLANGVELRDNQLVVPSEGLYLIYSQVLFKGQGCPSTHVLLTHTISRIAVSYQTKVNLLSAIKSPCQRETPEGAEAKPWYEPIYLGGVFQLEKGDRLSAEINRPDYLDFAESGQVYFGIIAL
# experimentNotes: SPR (BIAcore T100), His-tagged human TNF captured on NTA chip, scFv as analyte
# Excerpt: For binding affinity measurements at pH5 and pH 7.4 (data not shown), surface Plasmon resonance measurements with BIAcore™-T 100 were employed using a NTA sensor chip and His-tagged TNF (produced at ESBATech). […] The response signal is generated by surface Plasmon resonance (SPR) technology and measured in resonance units (RU). […]
property: koff (s⁻¹)

>>> measuredresult("EP34_max (scFv, scFv NH2-VL-(GGGGS)4-VH-COOH; also called Epi34max; 791) scFv: EIVMTQSPSTLSASLGDRVIITCQSSQSVYGNIWMAWYQQKSGKAPKLLIYQASKLASGVPSRFSGSGSGAEFSLTISSLQPDDFATYYCQGNFNTGDRYAFGQGTKLTVLGGGGGSGGGGSGGGGSGGGGSEVQLVESGGGLVQPGGSLRLSCTASGFTISRSYWICWVRQAPGKGLEWVACIYGDNDITPLYANWAKGRFPVSTDTSKNTVYLQMNSLRAEDTAVYYCARLGYADYAYDLWGQGTLVTVSS")
"1.68e-05"
>>> measuredresult("EP43_max (scFv, scFv NH2-VL-(GGGGS)4-VH-COOH; also called 676) scFv: EIVMTQSPSTLSASVGDRVIIKCQASQSISDWLAWYQQKPGKAPKLLIYGASRLASGFPSRFSGSGSGAEFTLTISGLEPADFATYYCQQGWSDSYVDNLFGQGTKLTVLGGGGGSGGGGSGGGGSGGGGSEVQLVESGGGLVQPGGSLRLSCTVSGFSLSSGAMSWVRQAPGKGLEWVGVIISSGATYYASWAKGRFTISKDTSKNTVYLQMNSLRAEDTAVYYCARGGPDDSNSMGTFDPWGQGTLVTVSS")
"4.48e-05"
>>> measuredresult("EP15_max (scFv, scFv NH2-VL-(GGGGS)4-VH-COOH; also called 1074) scFv: EIVMTQSPSTLSASVGDRVIITCQASENIYTSLAWYQQKPGKAPKLLIYSASTLASGVPSRFSGSGSGTEFTLTISSLQPDDFATYYCQQGFATSNVENPFGQGTKLTVLGGGGGSGGGGSGGGGSGGGGSEVQLVESGGGSVQPGGSLRLSCTVSGFSLSRYGVSWVRQAPGKGLEWVGAIGETGRAYYANWAKSRSTISRDTSKNTVYLQMNSLRAEDTATYYCARGEEFNNGWGAFNIWGQGTTVTVSS")
0.00226
>>> measuredresult("EP42_max (scFv, scFv NH2-VL-(GGGGS)4-VH-COOH; also called 1077) scFv: EIVMTQSPSTLSASVGDRVIITCQSTESVYKNNYLAWYQQKPGKAPKLLIYDASTLASGVPSRFSGSGSGTEFTLTISSLQPDDFATYYCAGYYRSGFGTANGSFGQGTKLTVLGGGGGSGGGGSGGGGSGGGGSEVQLVESGGGSVQPGGSLRLSCTVSGIDLRNDAISWVRQAPGKGLEWVSYISDWGIKYYASWVKGRFTISKDTSKNTVYLQMNSLRAEDTATYYCARGAPGAGDNGIWGQGTTVTVSS")
0.000419
